- system under test: EGFRvIII expressed on cells (F98-npEGFRvIII, NCI-H522-EGFRvIII, U87-KO-EGFRvIII) (human)
- assay summary: flow cytometry, F98-EGFRvIII cells; 2nd Ab only 2.3
Item-by-item account of % positive

- binder: "21E11 (antibody, V domains shown) VH: QVTLKESGPVLVKPTETLTLTCTVSGFSLSNVRMGVSWIRQPPGKALEWFAHIFSSDEKSIRRSLRSRLTLSKDTSKSQVVLTMTNMDPVDTATYYCARDSSNYEGYFDFWGQGTLVTVSS VL: DMVVTQSPATLSVSPGERATLSCRASQSVGSDLAWYQQPPGQSPRLLIYGASTRATGVPARFSGSGSGTDFTLTITSLESEDFAVYYCQQYNDWPFTFGPGTKVDIK"
  % positive (%): 98.5
- binder: "29D5 (antibody, V domains shown) VH: QVTLKESGPVLVKPTETLTLTCTVSGFSLSNPRMGVSWLRQPPGKALEWFAHIFSTDEKSYSPSLRGRLTVSKDTSKSQVVLTLTNMDPVDTATYYCARDSSNYEGYFDYWGQGTLVTVSS VL: KIVMTQSPATLSVSPGERATLSCRANQIVSSNLAWYQQKPGQAPRLLVFGTSTRATGIPIRFSGSGSGTEFTLTVSSLQSEDFAVYVCQQYNDWPFTFGPGTKVDIK"
  % positive (%): 97.9
- binder: "42G9 (antibody, V domains shown) VH: QVTLKESGPVLLKPTETLTLTCTVSGFSLSNPRMGVSWIRQPPGKALEWFAHIFSTDEKSLKLSLRSRLTLSKDTSKSQVVLTMTNMAPVDSATYYCARDSSNYEGYFDFWGQGTLVTVSS VL: EVVLTQSPATLSVSPGERATLSCRASQSVRSNLAWYQQKSGQAPRLLIYGSTIRATGVPARFSGSGSGTEFTLTISSLQSEDFAVYYCQQYSDWPFTFGPGTKVDIK"
  % positive (%): 98.5
- binder: "11B11 (antibody, V domains shown) VH: QVTLKESGPVLVKPTETLTLTCTVSGFSLSNAKMGVSWIRQPPGKALEWLAHIFSTDEKSIRRSLRSRLTMSKDTSKSQVVLTMTNMDPVDTATYYCVRDSSNYEGYFDYWGQGTLVTVSS VL: EVLMTQSPATLSVSPGERATLSCRASQSVSTNFAWYQQRPGQAPRLLLFGASTRATGIPGRFSGSGSGTENILTISSLQSEDFAIYFCQQYKDWPFTFGPGSKVEIK"
  % positive (%): 98.2
- binder: "20B9 (antibody, V domains shown) VH: QVTLKESGPVLVKPTETLTLTCTVSGFSLSNARMGVSWIRQPPGKALEWLGHIFSTDEKSYSTSLRGRITISKDTSRGLVVLTLTNMDPVDTATYYCARDSSNYEGYFDFWGPGFLVTVSS VL: EIVMTQSPATLSVSPGERATLSCRVSQSIGANLAWYQQKFGQAPRLLIYGASTRATGIPVRFSGGGSGTEFTLTISSLQSEDFAIYSCQQYIYWPFTFGPGTTVDIK"
  % positive (%): 98.3
